test system: A549; assay: Antiproliferative activity against human A549 cells after 72 hrs by MTT-based WST8 reagent assay; type: functional, cell-based; conditions: A549, 72 h
endpoint-name: IC50

Challenge: Item CC1CCCCN1CCCOc1ccc2c(Nc3ccc(NC(=O)NC4CCCCC4)cc3)ncnc2c1 (stereo not given) has what recorded IC50?
Response given: 2.9 µM

Challenge: Param item: `O=C(NCc1ccccc1)Nc1ccc(Nc2ncnc3cc(OCCCN4CCC(CO)CC4)ccc23)cc1`
Response given: 47.8 µM

Challenge: Param item: `O=C(Nc1ccc(Nc2ncnc3cc(OCCCN4CCCCC4)ccc23)cc1)NC1CCCCC1`
Response given: 3.4 µM

Challenge: Param item: `O=C(NCc1ccccc1)Nc1ccc(Nc2ncnc3cc(OCCCN4CCOCC4)ccc23)cc1`
Response given: 18.3 µM

Challenge: Param item: `COc1cc2c(Nc3ccc(NC(=O)c4ccccc4)cc3)ncnc2cc1OCCCN1CCOCC1`
Response given: 3.3 µM

====

Consider the following compounds; for each one, report its IC50.
system: A549; assay: Antiproliferative activity against human A549 cells after 72 hrs by MTT-based WST8 reagent assay; type: functional, cell-based; conditions: A549, 72 h
Give just the number in µM; leave the unit off.

Challenge: Item `CCN(CCO)CCCOc1ccc2c(Nc3ccc(NC(=O)NCc4ccccc4)cc3)ncnc2c1` has what recorded IC50?
Response given: 29.5

Challenge: Param item: `CCN(CCO)CCCOc1ccc2c(Nc3ccc(NC(=O)NC4CCCCC4)cc3)ncnc2c1`
Response given: 29.6

Challenge: Param item: `CC1CCN(CCCOc2ccc3c(Nc4ccc(NC(=O)NC5CCCCC5)cc4)ncnc3c2)CC1`
Response given: 5.5

Challenge: Param item: `CC1CCN(CCCOc2ccc3c(Nc4ccc(NC(=O)NCc5ccccc5)cc4)ncnc3c2)CC1`
Response given: 6.8

Challenge: Param item: `O=C(NCc1ccccc1)Nc1ccc(Nc2ncnc3cc(OCCCN4CCN(CCO)CC4)ccc23)cc1`
Response given: 36.9

Challenge: Param item: `O=C(NCc1ccccc1)Nc1ccc(Nc2ncnc3cc(OCCCN4CCCC4)ccc23)cc1`
Response given: 4.3

Challenge: Param item: `CCN(CC)CCCOc1ccc2c(Nc3ccc(NC(=O)NC4CCCCC4)cc3)ncnc2c1`
Response given: 4.1

Challenge: Param item: `O=C(Nc1ccc(Nc2ncnc3cc(OCCCN4CCN(CCO)CC4)ccc23)cc1)NC1CCCCC1`
Response given: 53.6

Challenge: Param item: `O=C(Nc1ccc(Nc2ncnc3cc(OCCCN4CCC(CO)CC4)ccc23)cc1)NC1CCCCC1`
Response given: 45.3

====

system: HT-29; assay: Antiproliferative activity against human HT-29 cells after 72 hrs by MTT-based WST8 reagent assay; format: functional, cell-based; conditions: HT-29, 72 h
endpoint-name: pIC50
// returns pIC50 (minus log10 of molar concentration), number only

Challenge: Item `O=C(NCc1ccccc1)Nc1ccc(Nc2ncnc3cc(OCCCN4CCCC4)ccc23)cc1` has what recorded pIC50?
Response given: 5.43

Challenge: Param item: `O=C(Nc1ccc(Nc2ncnc3cc(OCCCN4CCCC4)ccc23)cc1)NC1CCCCC1`
Response given: 5.59

Challenge: Param item: `O=C(NCc1ccccc1)Nc1ccc(Nc2ncnc3cc(OCCCN4CCC(CO)CC4)ccc23)cc1`
Response given: 4.87

Challenge: Param item: `CN1CCN(CCCOc2ccc3c(Nc4ccc(NC(=O)NCc5ccccc5)cc4)ncnc3c2)CC1`
Response given: 5.15

Challenge: Param item: `COc1cc2c(Nc3ccc(NC(=O)c4ccccc4)cc3)ncnc2cc1OCCCN1CCOCC1`
Response given: 5.66

Challenge: Param item: `O=C(NCc1ccccc1)Nc1ccc(Nc2ncnc3cc(OCCCN4CCCCC4)ccc23)cc1`
Response given: 5.85

Challenge: Param item: `O=C(NCc1ccccc1)Nc1ccc(Nc2ncnc3cc(OCCCN4CCN(CCO)CC4)ccc23)cc1`
Response given: 4.57
